Origin of values: the supplement of paper PMC4723716

Measured viability index by item
Test system: Plasmodium falciparum NF54 stage V gametocytes
assayProcedure: viability index relative to DMSO control (fraction); higher = less gametocyte killing
assayConditions: 2.5 µM, library set: Broad Institute DOS, incubation time: 72 h
The full ranking holds about 9,900 compounds; the median of “viability index relative to DMSO control” is about 1, and the lowest 2% start at about 0.85. The list comes from a sample in which the lowest values are over-represented; it also holds close analogues and randomly drawn compounds.

[
  {
    "smilesData": "Cc1cccc(-c2ccc([C@H]3[C@H]4CN(S(=O)(=O)c5ccccc5F)CCCCN4[C@H]3CO)cc2)c1",
    "testTarget": "Plasmodium falciparum NF54 stage V gametocytes",
    "viability index": 0.973
  },
  {
    "smilesData": "O=C(C[C@@H]1C=C[C@H](NC(=O)Nc2ccccc2F)[C@@H](CO)O1)NCc1ccc(-c2ccccc2)cc1",
    "testTarget": "Plasmodium falciparum NF54 stage V gametocytes",
    "viability index": 1.11
  },
  {
    "smilesData": "N#C[C@H]1[C@@H](c2ccc(-c3cccnc3)cc2)[C@@H](CO)N1C(=O)C1CCOCC1",
    "testTarget": "Plasmodium falciparum NF54 stage V gametocytes",
    "viability index": 1.07
  },
  {
    "smilesData": "CN1C(=O)c2cc(NC(=O)c3ccc4c(c3)OCO4)ccc2OC[C@H]2O[C@@H](CC(=O)O)CC[C@@H]21",
    "testTarget": "Plasmodium falciparum NF54 stage V gametocytes",
    "viability index": 1.11
  },
  {
    "smilesData": "Cc1ccccc1-c1ccc([C@H]2[C@@H](CO)N3CCCCN(S(=O)(=O)Cc4ccccc4)C[C@@H]23)cc1",
    "testTarget": "Plasmodium falciparum NF54 stage V gametocytes",
    "viability index": 0.991
  }
]

Next compound, please.
Just so you know, measured viability index for CCC(=O)N1CC(=O)N2[C@H](CO)[C@H](c3ccc(C#CCC(C)C)cc3)[C@H]2C1 came out at 0.956

====

Measured viability index by item
System: Plasmodium falciparum NF54 stage V gametocytes
assayProcedure: viability index relative to DMSO control (fraction); higher = less gametocyte killing
assayConditions: 2.5 µM, library set: Broad Institute DOS, incubation time: 72 h
Over roughly 9,900 compounds, “viability index relative to DMSO control” has its median near 1; the lowest 2% begin near 0.85. The entries come from a sample that favours the lowest values as a whole.
Please state the value as a number alone, without comment.

[
  {
    "smilesData": "CN(C)C(=O)c1cccc(-c2ccc3c(c2)[C@H]2[C@H](CCN2C(=O)Cc2ccccc2)[C@H](CO)N3)c1",
    "assayMetric": "viability index",
    "resultNumber": 1.03
  }
]

Just so you know, measured viability index for Cc1cccc(S(=O)(=O)N2CC[C@@H]3[C@@H](CO)Nc4ccc(-c5ccccc5F)cc4[C@@H]32)c1 came out at 1.18

Just so you know, measured viability index for Cc1ccc(S(=O)(=O)N2CC[C@@H]3[C@H](CO)Nc4ccc(-c5cccc(C(=O)N(C)C)c5)cc4[C@@H]32)cc1 came out at 0.77

Just so you know, measured viability index for OC[C@@H]1[C@H](c2ccc(-c3cccnc3)cc2)[C@@H]2CN(Cc3ccccn3)CCCCN12 came out at 1.04

Just so you know, measured viability index for CO[C@H](CN(C)S(=O)(=O)c1ccc(C)cc1)[C@H](C)CN(C(=O)Nc1ccccc1F)[C@H](C)CO came out at 1.06
